// reported PBM binding z-score per item
# System: PPARg:RXRa DBDmut IVT, anti-RXR (DBD mutation: RXRa K156A/R161A, NR concentration 270 nM, RXRa partner concentration 90 nM)
# Experimental details: PBM binding z-score (relative to random genomic background probes); higher = stronger binding; sequences stand for … in GC…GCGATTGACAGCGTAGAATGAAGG
Quantity name: PBM binding z-score

1. TTACCAAGGGGAAGGTCGTTGATCCCTCTGTAGA : -0.147
2. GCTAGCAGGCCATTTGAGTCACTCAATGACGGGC : 0.829
3. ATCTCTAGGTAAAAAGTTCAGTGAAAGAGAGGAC : 1.79
4. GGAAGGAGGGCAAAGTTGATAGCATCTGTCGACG : 4.12
5. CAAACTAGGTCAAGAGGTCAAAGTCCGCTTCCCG : 8.49
6. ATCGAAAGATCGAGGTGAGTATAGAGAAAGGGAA : -0.0862
7. CAAACTAGGTCACAGAGGTCACAGTCCGTGCGTA : 8.75
8. ACTAGCAGGCCAAGGGTCACTAAAGATTAGTCCG : 1.3
9. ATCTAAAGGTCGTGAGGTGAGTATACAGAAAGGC : 1.12
10. TCTTGCAGATCAAGCAGGTTAAGAAAGCCTGAGT : 0.549
11. CCGACTGAGGCAGAAAGGTTACCATACCATCCGG : -0.0384
12. TCTAGAAGGCCAGAGGGTCACTCAAGAGGTACGG : 1.75
13. TCTCGGAGTACACGAAAGGTCAGAGCTCGACATC : 1.42
14. GCTGCTAGGTCAACGGATGGTCAGCTAAAGCTCG : 4.91
15. ACTATTAGTTGAGACTAGGGCAACCGATAGGTTG : 1.02
16. TCGAGTAGGTTACCAATGGGCCATTCAGCTTTCT : 3.13
17. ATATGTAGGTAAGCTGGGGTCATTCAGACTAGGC : 6.08
18. ATCGAAAGGCCGTGAGGTGAGTATACAGAAAGGC : -0.822
19. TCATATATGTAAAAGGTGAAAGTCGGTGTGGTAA : 2.46
20. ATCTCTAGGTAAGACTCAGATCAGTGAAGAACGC : 1.51
21. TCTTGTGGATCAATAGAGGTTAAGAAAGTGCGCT : 1.7
22. TCATACAGGTGAAGGTAACTCAGGTACGCAGTCG : 3.17
23. CCAACTAGGTCACCGGAAGGTCAAAGTCCGCATG : 8.42
24. CATCCAAGGTCAGCAGGTCAGTGAAAGCGACGTG : 3.12
25. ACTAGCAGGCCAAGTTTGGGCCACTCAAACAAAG : 0.654
26. TCATATAGGTAAACAGGTGAAAGTGCGTAAGTTA : 4.84
